- Measured target: Mast/stem cell growth factor receptor Kit (Homo sapiens, UniProt P10721, T670I)
- Sequence (P10721 26-976 T670I limits assumed): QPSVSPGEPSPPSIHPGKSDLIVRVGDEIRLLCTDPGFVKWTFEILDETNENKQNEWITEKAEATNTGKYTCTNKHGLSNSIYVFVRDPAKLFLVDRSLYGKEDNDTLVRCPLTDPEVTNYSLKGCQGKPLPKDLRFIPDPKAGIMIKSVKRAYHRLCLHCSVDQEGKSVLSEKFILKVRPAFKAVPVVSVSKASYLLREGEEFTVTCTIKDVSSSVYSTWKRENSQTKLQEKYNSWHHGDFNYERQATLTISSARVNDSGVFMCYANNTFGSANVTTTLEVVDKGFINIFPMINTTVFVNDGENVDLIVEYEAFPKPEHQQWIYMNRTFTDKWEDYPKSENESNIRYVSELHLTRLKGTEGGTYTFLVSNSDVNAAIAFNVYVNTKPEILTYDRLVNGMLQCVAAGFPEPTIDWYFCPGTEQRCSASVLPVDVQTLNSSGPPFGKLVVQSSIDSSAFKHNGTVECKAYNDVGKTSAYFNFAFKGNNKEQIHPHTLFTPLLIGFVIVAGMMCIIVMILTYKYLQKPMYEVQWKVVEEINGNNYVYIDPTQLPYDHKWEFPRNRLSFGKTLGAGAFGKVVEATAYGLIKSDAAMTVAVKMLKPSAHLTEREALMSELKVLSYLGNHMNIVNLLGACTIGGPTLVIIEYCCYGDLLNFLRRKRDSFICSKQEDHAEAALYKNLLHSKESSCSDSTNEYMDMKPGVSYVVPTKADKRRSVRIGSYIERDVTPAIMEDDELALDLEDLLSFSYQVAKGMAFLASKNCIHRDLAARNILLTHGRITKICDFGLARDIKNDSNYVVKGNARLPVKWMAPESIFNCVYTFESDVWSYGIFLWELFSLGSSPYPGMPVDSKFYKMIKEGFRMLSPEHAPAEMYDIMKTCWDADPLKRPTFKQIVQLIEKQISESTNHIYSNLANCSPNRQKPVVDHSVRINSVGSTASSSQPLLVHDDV
- Experiment: Inhibition of TEL fused wild type c-KIT T670I mutant (unknown origin) transfected in mouse BaF3 cells assessed as reduction in phosphorylation at Y823 residue after 2 hrs by Western blot analysis
- Type: cell-based
Observed property: EC50 (nM)

# Structure string, Observed property, Unit tag, Measured value
measured = [
    ("O=C(CC(=O)Nc1ccc2c(/C=C/c3ccccn3)n[nH]c2c1)Nc1cccc(F)c1", "EC50", "nM", 34),
]

* * *

Entries and their GI50 values follow.
- Measured target: Mast/stem cell growth factor receptor Kit (Homo sapiens)
- Experiment: Inhibition of wild type TEL fused c-KIT (unknown origin) transfected in mouse BAF3 cells assessed as growth inhibition after 72 hrs by CCK8 assay
- Format: cell-based
- Test settings: baf3, 72 h
Observed property: GI50 (µM)

# Structure string, Sign, Measured value
records = [
    ("O=C(CC(=O)Nc1ccc2c(/C=C/c3ccccn3)n[nH]c2c1)Nc1cc(F)cc(F)c1", "=", 1.87),
    ("O=C(Nc1ccc(Cl)c(C(F)(F)F)c1)C1(C(=O)Nc2ccc3c(/C=C/c4ccccn4)n[nH]c3c2)CC1", "=", 1),
    ("CN(C)c1cccc(NC(=O)CC(=O)Nc2ccc3c(/C=C/c4ccccn4)n[nH]c3c2)c1", "=", 3.87),
    ("CN1CCN(c2ccc(-c3n[nH]c4cc(NC(=O)CC(=O)Nc5ccc(Cl)c(C(F)(F)F)c5)ccc34)cc2)CC1", "=", 0.025),
    ("CN1CCN(c2cccc(NC(=O)CC(=O)Nc3ccc4c(/C=C/c5ccccn5)n[nH]c4c3)c2)CC1", ">", 10),
    ("O=C(CC(=O)Nc1ccc2c(/C=C/c3ccccn3)n[nH]c2c1)Nc1cccc(Cl)c1", "=", 0.923),
    ("O=C(CC(=O)Nc1cc(F)ccc1F)Nc1ccc2c(/C=C/c3ccccn3)n[nH]c2c1", "=", 3.46),
    ("O=C(CC(=O)Nc1ccccc1F)Nc1ccc2c(/C=C/c3ccccn3)n[nH]c2c1", "=", 2.16),
    ("O=C(CC(=O)Nc1ccc2c(/C=C/c3ccccn3)n[nH]c2c1)Nc1cccc(C(F)(F)F)c1", "=", 0.216),
    ("O=C(CC(=O)Nc1ccc2c(/C=C/c3ccccn3)n[nH]c2c1)Nc1cccc(F)c1", "=", 1.15),
    ("O=C(Nc1ccc(Cl)c(C(F)(F)F)c1)Nc1ccc2c(/C=C/c3ccccn3)n[nH]c2c1", "=", 1.6),
    ("Cc1n[nH]c2cc(NC(=O)CC(=O)Nc3ccc(Cl)c(C(F)(F)F)c3)ccc12", ">", 10),
    ("O=C(CC(=O)Nc1ccc2c(/C=C/c3ccccn3)n[nH]c2c1)Nc1ccc(F)cc1", "=", 0.554),
    ("O=C(CC(=O)Nc1ccc2c(/C=C/c3ccccn3)n[nH]c2c1)Nc1cccc(Br)c1", "=", 0.943),
    ("Cn1cc(-c2n[nH]c3cc(NC(=O)CC(=O)Nc4ccc(Cl)c(C(F)(F)F)c4)ccc23)cn1", "=", 0.35),
    ("Cc1ccc(-c2n[nH]c3cc(NC(=O)CC(=O)Nc4ccc(Cl)c(C(F)(F)F)c4)ccc23)cn1", "=", 0.183),
    ("O=C(CC(=O)Nc1ccc2c(/C=C/c3ccccn3)n[nH]c2c1)Nc1ccc(Cl)c(C(F)(F)F)c1", "=", 0.025),
    ("O=C(CC(=O)Nc1ccc2cn[nH]c2c1)Nc1ccc(Cl)c(C(F)(F)F)c1", ">", 10),
]
